Source listed as paper PMC12040169.

# Test Name: in vitro
# Recorded Conditions: human, hela cells, % viability
Endpoint Name: viability at 28.5 h, 10 µM (%)
Give bare numbers, in %.

- Compound: "COc1cc(C(C)=O)ccc1OCCCCN1CCOCC1 [CBK269713C]"
  viability at 28.5 h, 10 µM [%]: 98.2
- Compound: "CCN(Cc1cn2ccc(C)cc2n1)CC1CCOCC1"
  viability at 28.5 h, 10 µM [%]: 89.7
- Compound: "Nc1ccc(CCNC(=O)c2cnc(-c3ccc(Cl)cc3)c(-c3ccco3)c2)cc1"
  viability at 28.5 h, 10 µM [%]: 99.7
- Compound: "CSc1ccc(CN2CCN(S(=O)(=O)Cc3ccccc3)CC2)cc1 [CBK264301G]"
  viability at 28.5 h, 10 µM [%]: 94.2
- Compound: "Cc1ccn2ncc(C(=O)N3CCCCCC3c3ccco3)c2n1 (stereo not shown)"
  viability at 28.5 h, 10 µM [%]: 111
- Compound: "O=S(=O)(NCCCn1ccnc1)c1cc(Cl)ccc1Cl"
  viability at 28.5 h, 10 µM [%]: 105
- Compound: "Cc1nc2sccn2c(=O)c1NC(=O)c1ccccn1"
  viability at 28.5 h, 10 µM [%]: 87.2
- Compound: "COCc1nnc(NS(=O)(=O)c2ccc(C)cc2)s1"
  viability at 28.5 h, 10 µM [%]: 86.7
- Compound: "Cc1sc(NC(=S)NC(=O)Cc2cccc3ccccc23)c(C(N)=O)c1C"
  viability at 28.5 h, 10 µM [%]: 91.4

response.value for CN1CCCN(C(=O)c2ccc(-c3nc(-c4ccc(C#N)cc4)cnc3N)cc2)CC1 (field: viability at 28.5 h, 10 µM) = 93.9

* * *

So I've got a bunch of compounds here, and I need their viability at 28.5 h, 10 µM values.
# Test Name: in vitro
# Recorded Conditions: human, hela cells, % viability
Give bare numbers, in %.

A selection of reference data follows.
- Compound: "COc1ccc(-c2cc(C(=O)NCC(O)CO)cnc2-c2ccc(Cl)cc2)cn1 (stereo not drawn)"
  Display Unit: "%"
  viability at 28.5 h, 10 µM: 94
- Compound: "CC(C(=O)NC1(C#N)CCCCC1)N1CCOC(Cn2cccn2)C1 (stereo not drawn)"
  Display Unit: "%"
  viability at 28.5 h, 10 µM: 88.9
- Compound: "Cc1ccc(NC(=O)c2nc(-c3ccc(C(=O)N4CCOCC4)cc3)cnc2N)c(O)c1"
  Display Unit: "%"
  viability at 28.5 h, 10 µM: 44.3
- Compound: "NC(=O)CCN1CCC(Cc2ccccc2)CC1"
  Display Unit: "%"
  viability at 28.5 h, 10 µM: 117
- Compound: "O=C(O)COc1ccc2c(=O)c(Oc3ccccc3Br)c(C(F)(F)F)oc2c1"
  Display Unit: "%"
  viability at 28.5 h, 10 µM: 101

Give viability at 28.5 h, 10 µM for all compounds that follow.
1. CCCC/C=C/c1nccnc1N[C@@H](C)c1ccccc1
2. COc1ccccc1N(CC(=O)NC(C(C)C)C(C)C)S(=O)(=O)c1ccccc1
3. O=C(NC1CC1)C1(Cc2ccccc2-c2ccncc2)CCOCC1

1. 84.7
2. 91.4
3. 94.1

response.value for CCC(c1ccc2c(c1)CCO2)N1CCN(Cc2nc(C)no2)CC1 (stereo not drawn) (field: viability at 28.5 h, 10 µM) = 90.3

* * *

# Test Name: in vitro
# Recorded Conditions: human, hela cells, % viability
Endpoint Name: viability at 28.5 h, 10 µM (%)
Give bare numbers, in %.

- Compound: "Nn1cnn2c(SCC(=O)c3cccs3)nnc12 [CBK263184]"
  Display Unit: "%"
  Reported Measurement: 105
- Compound: "Cc1c(C(=O)NCc2cc(C3CC3)[nH]n2)[nH]c2c(Cl)cccc12 [CBK282533]"
  Display Unit: "%"
  Reported Measurement: 70.2
- Compound: "Cc1nnc(SCC(=O)NC(C)(C)C)n1NCc1cccc(Br)c1 [CBK266517]"
  Display Unit: "%"
  Reported Measurement: 101
- Compound: "O=S(=O)(c1ccc(Cl)c(S(=O)(=O)N2CCOCC2)c1)c1ccc(Cl)c(S(=O)(=O)N2CCOCC2)c1 [CBK261369]"
  Display Unit: "%"
  Reported Measurement: 112

From here, focus on the item given below.
response.value for O=C(NC[C@H]1CCCN(C(=O)c2cccnc2)C1)c1cccs1 [CBK284264] (field: viability at 28.5 h, 10 µM) = 81.6

* * *

So I've got a bunch of compounds here, and I need their viability at 28.5 h, 10 µM values.
# Test Name: in vitro
# Recorded Conditions: human, hela cells, % viability
Answers are plain numbers, in %.

A selection of reference data follows.
- Compound: "CC(NC(=O)CCc1cscn1)c1nc(-c2ccncc2)cs1 (centres unmarked) [CBK305260]"
  viability at 28.5 h, 10 µM [%]: 77.6
- Compound: "O=[N+]([O-])c1cccc(/C=N/Nc2nc(-c3ccccc3)cc(-c3ccccc3O)n2)c1 [CBK261722]"
  viability at 28.5 h, 10 µM [%]: 95.8
- Compound: "O=C(O)C1CC(=O)N(Cc2ccccc2)C1c1ccccc1 (centres unmarked) [CBK286876]"
  viability at 28.5 h, 10 µM [%]: 89.1
- Compound: "CCCN1C[C@H](NC(=O)CC)[C@@H](c2ccc(OC)cc2)C1 [CBK282134]"
  viability at 28.5 h, 10 µM [%]: 82.3
- Compound: "O=C(Cn1nnc2ccccc21)N/N=C\\c1cccc(Cl)c1Cl [CBK262931]"
  viability at 28.5 h, 10 µM [%]: 92.4

Give viability at 28.5 h, 10 µM for all compounds that follow.
1. O=S(=O)(c1cc(Cl)ccc1Cl)N1CCSC1 [CBK097980]
2. COc1ccc(C(NC(=O)C2CCN(Cc3c[nH]c4ccccc34)CC2)c2ccccn2)cc1 (centres unmarked) [CBK148033]
3. CCC(C)(C)c1ccc(S(=O)(=O)N(CCC#N)Cc2cccnc2)cc1 [CBK043960]
4. O=C(Cn1ccc(=O)[nH]c1=O)NCC1(Sc2ccccc2)CC1 [CBK306242]
5. c1cncc(OCCN2CCN(c3nccnc3OCCN3CCOCC3)CC2)c1 [CBK082914]
6. CC(NC(=O)CCn1cncn1)c1cccs1 (centres unmarked) [CBK282199]
7. CC(C)(C)OC(=O)N1CCC(C(=O)NC[C@H](CC(=O)O)c2ccc(Cl)cc2)CC1 [CBK286691]

1. 99.4
2. 121
3. 89.6
4. 110
5. 107
6. 103
7. 98

Give viability at 28.5 h, 10 µM for all compounds that follow.
1. CCNC(=O)N1C(CC(=O)Nc2cccc(OC)c2)C(=O)NC2CCCCC21 (centres unmarked) [CBK269848]
2. CCn1cc(CN(CCO)C(=O)c2cccc(C#N)c2C)cn1 [CBK304196]
3. COCCNc1nccnc1-c1ccsc1 [CBK038008]
4. CC(=O)Nc1ccc(S(=O)(=O)Nc2nc3ccccc3nc2Nc2ccc(C(=O)O)cc2)cc1 [CBK296079]
5. c1ccc2c(CN3CCCNCC3)cccc2c1 [CBK028773]
6. COc1ccc(C)cc1NC(=O)CCN1CCN(CCO)CC1 [CBK264199]
7. CC(C)OC(=O)[C@@H]1CCN(C(=O)CCC2NC(=O)NC2=O)[C@@H]1c1ccc(F)cc1 (some centres unmarked) [CBK285520]
8. O=C1CC(c2ccc(Cl)cc2)CC(=O)C1=CNCCN1CCN(C(=O)Nc2ccccc2)CC1 (centres unmarked) [CBK263671]

1: 90.6; 2: 109; 3: 95.4; 4: 125; 5: 81; 6: 97.4; 7: 103; 8: 95.3

Give viability at 28.5 h, 10 µM for all compounds that follow.
1. CCc1nc2ccc(C(=O)NC3=NC(=O)CS3)cn2c1N(CC)C(C)=O [CBK145839]
2. Cc1nnc(Sc2nc3ccccc3nc2NC(C)C)s1 [CBK093731]
3. Cc1c(C(=O)O)c2cc(O)ccc2n1-c1ccccc1 [CBK115329]
4. Cc1cc2c(cc3c(=O)n(CCN4CCCC4)nc(C)n32)s1 [CBK284126]
5. O=S(=O)(O)c1cccc2cccc(I)c12 [CBK301197N]

[100, 90.6, 103, 95.5, 89.1]

Give viability at 28.5 h, 10 µM for all compounds that follow.
1. O=C(O)c1ccc(/C=N/N2CCN(Cc3ccc(Cl)cc3)CC2)cc1 [CBK263561]
2. CC(C)(C)NCC(O)c1ccc(O)c2c1C1CCC2CC1 (centres unmarked) [CBK013269C]
3. CC(C)(C)OC(=O)N1Cc2ccccc2C[C@H]1C(=O)N1CCC(C(=O)O)CC1 [CBK286761]
4. O=C(Nc1nnc(-c2ccc3c(c2)OCCO3)o1)c1ccc2c(c1)OCCO2 [CBK287403]

[90.5, 93.9, 94.1, 84.5]
